Biological target: NL1 (Mus musculus, UniProt Q9JLI3)
Sequence (Q9JLI3 63-765 limits assumed): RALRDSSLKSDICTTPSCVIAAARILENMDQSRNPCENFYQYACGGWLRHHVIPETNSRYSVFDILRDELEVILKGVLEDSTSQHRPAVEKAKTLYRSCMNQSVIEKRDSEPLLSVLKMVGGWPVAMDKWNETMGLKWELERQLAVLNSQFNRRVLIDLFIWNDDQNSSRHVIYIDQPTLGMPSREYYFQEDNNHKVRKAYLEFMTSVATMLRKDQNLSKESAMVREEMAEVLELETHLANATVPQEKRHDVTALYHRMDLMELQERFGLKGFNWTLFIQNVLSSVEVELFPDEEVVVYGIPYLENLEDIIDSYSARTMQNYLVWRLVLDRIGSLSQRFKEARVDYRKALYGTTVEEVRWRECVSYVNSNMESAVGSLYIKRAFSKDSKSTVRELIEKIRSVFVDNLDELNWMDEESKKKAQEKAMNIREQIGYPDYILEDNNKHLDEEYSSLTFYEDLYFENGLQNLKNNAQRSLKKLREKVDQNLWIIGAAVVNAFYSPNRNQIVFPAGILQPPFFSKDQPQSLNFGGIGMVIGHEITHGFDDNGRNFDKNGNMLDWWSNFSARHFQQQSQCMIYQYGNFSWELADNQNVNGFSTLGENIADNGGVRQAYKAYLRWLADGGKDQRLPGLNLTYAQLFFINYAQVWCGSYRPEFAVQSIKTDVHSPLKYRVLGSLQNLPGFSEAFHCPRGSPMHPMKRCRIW
Test: NL-1 enzymatic activity assay with (Tyrosyl-[3,5-3H])(D-Ala2)-Leu5-enkephalin as substrate
Conditions: inhibition of NL-1 degradation of the enkephalin substrate
readout-label: IC50 (nM)
Numbers only, in nM.

Give one value of IC50 per listed molecule.
1. CC(C)C[C@H](NP(=O)(O)O[C@@H]1O[C@@H](C)[C@H](O)[C@@H](O)[C@H]1O)C(=O)N[C@@H](Cc1c[nH]c2ccccc12)C(=O)O
2. O=C(O)CNC(=O)C(CS)Cc1ccccc1 (centres unmarked)

OUT:
0.9
47
